- ASSAY_DETAILS: Plasma concentration in NMRI mouse at 3 mg/kg, ip after 30 mins by HPLC-MS/MS analysis
- Format: ADME, organism-based
- Set-up: dose 3 mg/kg, route intraperitoneal
MEASUREMENT_TYPE: concentration at 0.5 h (nM)
A number alone suffices; assume nM.

1. CCC1(CCCCN2CCN(c3cccc(Cl)c3)CC2)C(=O)Nc2ccccc21 (stereo not drawn) ... 168
2. CCC1(CCCCN2CCN(c3ccc(Cl)c(Cl)c3)CC2)C(=O)Nc2ccccc21 (stereo not drawn) ... 174
3. CCC1(CCCCN2CCN(c3ccc(Cl)cc3)CC2)C(=O)Nc2ccc(F)cc21 (stereo not drawn) ... 211
4. CCC1(CCCCN2CCN(c3ccc(Cl)cc3)CC2)C(=O)Nc2ccccc21 (stereo not drawn) ... 245

I have this compound here, CCC1(CCCCN2CCN(c3ccc(F)cc3)CC2)C(=O)Nc2ccccc21 (stereo not drawn) , and I need its recorded concentration at 0.5 h.
178

Query O=C1Nc2ccccc2C1CCCCN1CCN(c2cccc(Cl)c2)CC1 (stereo not drawn) next
114

Query CCC1(CCCCN2CCN(c3ccc(Cl)cc3)CC2)C(=O)Nc2cc(F)ccc21 (stereo not drawn) next
130

Query CCC1(CCCCN2CCN(c3ccc(Cl)cc3)CC2)C(=O)Nc2ccc(Cl)cc21 (stereo not drawn) next
14

---

Reported values: Ki for 5-hydroxytryptamine receptor 1A (Rattus norvegicus), one per item.
Answers without a unit are incomplete; give the number and then its unit.

Examples with answers:
1) CCC1(CCCCN2CCN(c3cccc(Cl)c3)CC2)C(=O)Nc2ccccc21 (stereo unspecified) ... 46 nM
2) CCC1(CCCCN2CC=C(c3cccc(Cl)c3)CC2)C(=O)Nc2ccc(F)cc21 (stereo unspecified) ... 123 nM
3) CCC1(CCCCN2CCN(c3ccccc3Cl)CC2)C(=O)Nc2ccccc21 (stereo unspecified) ... 30 nM
4) O=C1Nc2ccccc2C1CCCCN1CCN(c2cccc(Cl)c2)CC1 (stereo unspecified) ... 66 nM
5) O=C1Nc2ccc(F)cc2C1CCCCN1CC=C(c2cccc(C(F)(F)F)c2)CC1 (stereo unspecified) ... 55 nM
6) O=C1Nc2cc(F)ccc2C1CCCCN1CCN(c2ccccn2)CC1 (stereo unspecified) ... 99 nM

I have this compound here, O=C1Nc2ccccc2C1CCCCN1CC=C(c2cccc(C(F)(F)F)c2)CC1 (stereo unspecified) , and I need its recorded Ki.
19 nM

Query O=C1Nc2ccccc2C1CCCCN1CCN(c2ccccc2)CC1 (stereo unspecified) next
243 nM

Query CCC1(CCCCN2CCN(c3ccccc3OC)CC2)C(=O)Nc2ccccc21 (stereo unspecified) next
9.8 nM

Query CCC1(CCCCN2CCN(c3ccccn3)CC2)C(=O)Nc2ccccc21 (stereo unspecified) next
55 nM

Query CCC1(CCCCN2CCN(c3cccc(F)c3)CC2)C(=O)Nc2ccccc21 (stereo unspecified) next
73 nM

---

- ASSAY_DETAILS: Metabolic stability in rat liver microsomes after 60 mins by HPLC-MS/MS analysis
- Type: ADME, Microsome
- CONDITIONS: read-out: Stability
Binary label based on remaining at 1 h with cut-off 20%: below gives Condition met, not below gives Condition not met.

1) CCC1(CCCCN2CCN(c3ccc(Cl)cc3)CC2)C(=O)Nc2ccc(Cl)cc21 (stereo not given) ... Condition not met
2) CCC1(CCCCN2CCN(c3ccc(Cl)cc3Cl)CC2)C(=O)Nc2ccccc21 (stereo not given) ... Condition met
3) CCC1(CCCCN2CCN(c3ccc(Cl)cc3)CC2)C(=O)Nc2c(Cl)cc(Cl)cc21 (stereo not given) ... Condition not met
4) O=C1Nc2ccccc2C1CCCCN1CCN(c2cccc(Cl)c2)CC1 (stereo not given) ... Condition met
5) CCC1(CCCCN2CCN(c3cccc(Cl)c3)CC2)C(=O)Nc2cc(F)c(Cl)cc21 (stereo not given) ... Condition met

Does the reported remaining at 1 h of the following compound sit strictly below 20%? CCC1(CCCCN2CCN(c3ccc(F)cc3)CC2)C(=O)Nc2ccccc21 (stereo not given)
Condition met

Query CCC1(CCCCN2CCN(c3ccc(Cl)cc3)CC2)C(=O)Nc2cc(F)c(Cl)cc21 (stereo not given) next
Condition met

Query CCC1(CCCCN2CCN(c3ccc(Cl)cc3)CC2)C(=O)Nc2ccccc21 (stereo not given) next
Condition met

Query O=C1Nc2ccc(F)cc2C1CCCCN1CCN(c2ccc(Cl)cc2)CC1 (stereo not given) next
Condition not met

Query CCC1(CCCCN2CCN(c3ccc(Cl)cc3)CC2)C(=O)Nc2cc(F)ccc21 (stereo not given) next
Condition met

---

- ASSAY_DETAILS: Drug level in NMRI mouse brain at 1 mg/kg, ip after 30 mins by HPLC/MS/MS analysis
- Assay type: ADME, organism-based
- Parameters: dose 1 mg/kg, route intraperitoneal
- CONDITIONS: read-out: Drug uptake
Kind request: treat 30 nM as inclusive, so concentration at 0.5 h at 30 nM or higher is label 1, anything lower is label 0.

Worked set:
1. CCC1(CCCCN2CCN(c3ccc(Cl)cc3)CC2)C(=O)Nc2ccccc21 (stereo not given) ... label 1
2. CCC1(CCCCN2CCN(c3ccc(Cl)cc3)CC2)C(=O)Nc2cc(F)ccc21 (stereo not given) ... label 1
3. CCC1(CCCCN2CCN(c3ccc(F)cc3)CC2)C(=O)Nc2ccccc21 (stereo not given) ... label 1

Could you tell me if the measured concentration at 0.5 h of CCC1(CCCCN2CCN(c3ccc(Cl)cc3)CC2)C(=O)Nc2ccc(Cl)cc21 (stereo not given) reaches 30 nM or more?
label 0

Query CCC1(CCCCN2CCN(c3ccc(Cl)c(Cl)c3)CC2)C(=O)Nc2ccccc21 (stereo not given) next
label 1

---

Here the recorded concentration at 0.5 h is given for each entry.
- ASSAY_DETAILS: Drug level in NMRI mouse brain at 3 mg/kg, ip after 30 mins by HPLC/MS/MS analysis
- Assay type: ADME, organism-based
- Set-up: dose 3 mg/kg, route intraperitoneal
- CONDITIONS: read-out: Drug uptake
A number alone suffices; assume nM.

Examples with answers:
1) CCC1(CCCCN2CCN(c3ccc(Cl)cc3)CC2)C(=O)Nc2cc(F)ccc21 (stereo not given) ... 99
2) O=C1Nc2ccccc2C1CCCCN1CCN(c2cccc(Cl)c2)CC1 (stereo not given) ... 827
3) CCC1(CCCCN2CCN(c3ccc(F)cc3)CC2)C(=O)Nc2ccccc21 (stereo not given) ... 431
4) CCC1(CCCCN2CCN(c3ccc(Cl)c(Cl)c3)CC2)C(=O)Nc2ccccc21 (stereo not given) ... 223

I have this compound here, CCC1(CCCCN2CCN(c3ccc(Cl)cc3)CC2)C(=O)Nc2ccc(F)cc21 (stereo not given) , and I need its recorded concentration at 0.5 h.
186

---

- ASSAY_DETAILS: Metabolic stability in human liver microsomes after 60 mins by HPLC-MS/MS analysis
- Assay type: ADME, Microsome
- CONDITIONS: read-out: Stability
Here the recorded remaining at 1 h is given for each entry.
A number alone suffices; assume %.

Examples with answers:
1. CCC1(CCCCN2CCN(c3ccc(F)cc3)CC2)C(=O)Nc2ccccc21 (stereo not given) ... 34
2. CCC1(CCCCN2CCN(c3ccc(Cl)cc3)CC2)C(=O)Nc2c(Cl)cc(Cl)cc21 (stereo not given) ... 53
3. CCC1(CCCCN2CCN(c3ccc(Cl)cc3)CC2)C(=O)Nc2cc(F)c(Cl)cc21 (stereo not given) ... 10

I have this compound here, CCC1(CCCCN2CCN(c3ccc(Cl)cc3)CC2)C(=O)Nc2cc(F)ccc21 (stereo not given) , and I need its recorded remaining at 1 h.
29

Query CCC1(CCCCN2CCN(c3cccc(Cl)c3)CC2)C(=O)Nc2cc(F)c(Cl)cc21 (stereo not given) next
46

Query CCC1(CCCCN2CCN(c3ccc(Cl)cc3)CC2)C(=O)Nc2ccc(Cl)cc21 (stereo not given) next
23

Query O=C1Nc2ccccc2C1CCCCN1CCN(c2cccc(Cl)c2)CC1 (stereo not given) next
39

Query CCC1(CCCCN2CCN(c3ccc(Cl)c(Cl)c3)CC2)C(=O)Nc2ccccc21 (stereo not given) next
29

Query CCC1(CCCCN2CCN(c3cccc(Cl)c3)CC2)C(=O)Nc2ccccc21 (stereo not given) next
31

Query O=C1Nc2ccccc2C1CCCCN1CCN(c2ccc(Cl)cc2)CC1 (stereo not given) next
52

---

- ASSAY_DETAILS: Metabolic stability in rat liver microsomes after 60 mins by HPLC-MS/MS analysis
- Format: ADME, Microsome
- CONDITIONS: read-out: Stability
MEASUREMENT_TYPE: remaining at 1 h (%)
A number alone suffices; assume %.

Examples with answers:
1. CCC1(CCCCN2CCN(c3cccc(Cl)c3)CC2)C(=O)Nc2ccccc21 (stereo not given) ... 4
2. CCC1(CCCCN2CCN(c3ccc(Cl)cc3)CC2)C(=O)Nc2ccc(F)cc21 (stereo not given) ... 17
3. CCC1(CCCCN2CCN(c3ccc(Cl)c(Cl)c3)CC2)C(=O)Nc2ccccc21 (stereo not given) ... 13

I have this molecule here, O=C1Nc2ccccc2C1CCCCN1CCN(c2ccc(Cl)cc2)CC1 (stereo not given) , and I need its recorded remaining at 1 h.
10

Query CCC1(CCCCN2CCN(c3ccc(Cl)cc3)CC2)C(=O)Nc2c1cc(Cl)c(F)c2Cl (stereo not given) next
72
